Measured Abs by item
assay_protocol: Spectroscopic measurements (absorption, emission, quantum yield, extinction coefficient)
Format: physicochemical
run_parameters: BDNCA library, absorption
property_measured: Abs (nm)

1. COc1cc(F)c(/C=C/c2cc(C)c3n2[B-](F)(F)[N+]2=CC=CC2=C3c2ccc(NC(=O)CCl)cc2)cc1OC [BDNCA-305] | 568
2. CC1=CC(/C=C/c2ccc(I)cc2)=[N+]2C1=C(c1ccc(NC(=O)CCl)cc1)c1cccn1[B-]2(F)F [BDNCA-237] | 560
3. COc1cc(C=CC=CC2=[N+]3C(=C(c4ccc(NC(=O)CCl)cc4)c4cccn4[B-]3(F)F)C(C)=C2)ccc1OC(C)=O [BDNCA-44] | 580
4. CCCCN(CCCC)c1ccc(/C=C/C2=[N+]3C(=C(c4ccc(NC(=O)CCl)cc4)c4cccn4[B-]3(F)F)C(C)=C2)cc1 [BDNCA-17] | 627
5. CC(=O)Nc1ccc(/C=C/C2=[N+]3C(=C(c4ccc(NC(=O)CCl)cc4)c4cccn4[B-]3(F)F)C(C)=C2)cc1 [BDNCA-111] | 570
6. CC1=CC(/C=C/c2ccc(/C=C/c3ccccc3)cc2)=[N+]2C1=C(c1ccc(NC(=O)CCl)cc1)c1cccn1[B-]2(F)F [BDNCA-69] | 577
7. CC1=CC(/C=C/c2c(C)c(C)c(C)c(C)c2C)=[N+]2C1=C(c1ccc(NC(=O)CCl)cc1)c1cccn1[B-]2(F)F [BDNCA-67] | 542

---

assay_protocol: Spectroscopic measurements (absorption, emission, quantum yield, extinction coefficient)
Assay type: physicochemical
run_parameters: BDNCA library, absorption
Measured Abs by item
property_measured: Abs (nm)

1. COc1cc(Br)cc(/C=C/C2=[N+]3C(=C(c4ccc(NC(=O)CCl)cc4)c4cccn4[B-]3(F)F)C(C)=C2)c1OC | 558
2. CCCCOc1ccc(/C=C/C2=[N+]3C(=C(c4ccc(NC(=O)CCl)cc4)c4cccn4[B-]3(F)F)C(C)=C2)cc1 | 566
3. COc1ccc2ccccc2c1/C=C/C1=[N+]2C(=C(c3ccc(NC(=O)CCl)cc3)c3cccn3[B-]2(F)F)C(C)=C1 | 581
4. COc1cc(OC)c(OC)cc1/C=C/C1=[N+]2C(=C(c3ccc(NC(=O)CCl)cc3)c3cccn3[B-]2(F)F)C(C)=C1 | 585
5. Cc1ccc(/C=C/c2cc(C)c3n2[B-](F)(F)[N+]2=CC=CC2=C3c2ccc(NC(=O)CCl)cc2)s1 | 577
6. COC(=O)c1ccc(/C=C/C2=[N+]3C(=C(c4ccc(NC(=O)CCl)cc4)c4cccn4[B-]3(F)F)C(C)=C2)cc1 | 560
7. COc1ccc(/C=C/C2=[N+]3C(=C(c4ccc(NC(=O)CCl)cc4)c4cccn4[B-]3(F)F)C(C)=C2)cc1OCc1ccccc1 | 570

---

assay_protocol: Spectroscopic measurements (absorption, emission, quantum yield, extinction coefficient)
Assay type: physicochemical
run_parameters: BDNCA library, absorption
property_measured: Abs (nm)

1) Cc1cc(/C=C/c2ccccc2OCC(=O)O)n2c1C(c1ccc(NC(=O)CCl)cc1)=C1C=CC=[N+]1[B-]2(F)F [BDNCA-128] | 559
2) COc1ccc(/C=C/c2cc(C)c3n2[B-](F)(F)[N+]2=CC=CC2=C3c2ccc(NC(=O)CCl)cc2)cc1 [BDNCA-110] | 566
3) Cc1cc(/C=C/c2cccc(Br)c2O)n2c1C(c1ccc(NC(=O)CCl)cc1)=C1C=CC=[N+]1[B-]2(F)F [BDNCA-256] | 561
4) CC1=CC(/C=C/c2c3ccccc3cc3ccccc23)=[N+]2C1=C(c1ccc(NC(=O)CCl)cc1)c1cccn1[B-]2(F)F [BDNCA-6] | 536
5) CC1=CC(/C=C/c2cccc3ccccc23)=[N+]2C1=C(c1ccc(NC(=O)CCl)cc1)c1cccn1[B-]2(F)F [BDNCA-25] | 566
6) CCOc1ccc(/C=C/C2=[N+]3C(=C(c4ccc(NC(=O)CCl)cc4)c4cccn4[B-]3(F)F)C(C)=C2)cc1OC [BDNCA-63] | 572
7) CC1=CC(/C=C/c2ccc(OCc3ccccc3)c(OCc3ccccc3)c2)=[N+]2C1=C(c1ccc(NC(=O)CCl)cc1)c1cccn1[B-]2(F)F [BDNCA-4] | 570
8) COc1cc(/C=C/C2=[N+]3C(=C(c4ccc(NC(=O)CCl)cc4)c4cccn4[B-]3(F)F)C(C)=C2)cc(Cl)c1O [BDNCA-29] | 567
9) CCc1ccccc1/C=C/c1cc(C)c2n1[B-](F)(F)[N+]1=CC=CC1=C2c1ccc(NC(=O)CCl)cc1 [BDNCA-251] | 555
10) CC1=CC(/C=C/C=C/c2ccc(N(C)C)cc2)=[N+]2C1=C(c1ccc(NC(=O)CCl)cc1)c1cccn1[B-]2(F)F [BDNCA-96] | 622
11) CC1=CC(/C=C/c2c[nH]c3ccc(Br)cc23)=[N+]2C1=C(c1ccc(NC(=O)CCl)cc1)c1cccn1[B-]2(F)F [BDNCA-185] | 581
12) COc1cc(/C=C/C2=[N+]3C(=C(c4ccc(NC(=O)CCl)cc4)c4cccn4[B-]3(F)F)C(C)=C2)cc(Cl)c1OC [BDNCA-294] | 560
13) COc1ccc(/C=C/c2cc(C)c3n2[B-](F)(F)[N+]2=CC=CC2=C3c2ccc(NC(=O)CCl)cc2)c(Br)c1O [BDNCA-261] | 567
14) CCCCCCOc1ccc(/C=C/C2=[N+]3C(=C(c4ccc(NC(=O)CCl)cc4)c4cccn4[B-]3(F)F)C(C)=C2)cc1 [BDNCA-45] | 566
